// provenance: patent US11767359B2

study_target: iC3b (Homo sapiens, UniProt P01024)
Sequence (P01024 23-667 limits assumed): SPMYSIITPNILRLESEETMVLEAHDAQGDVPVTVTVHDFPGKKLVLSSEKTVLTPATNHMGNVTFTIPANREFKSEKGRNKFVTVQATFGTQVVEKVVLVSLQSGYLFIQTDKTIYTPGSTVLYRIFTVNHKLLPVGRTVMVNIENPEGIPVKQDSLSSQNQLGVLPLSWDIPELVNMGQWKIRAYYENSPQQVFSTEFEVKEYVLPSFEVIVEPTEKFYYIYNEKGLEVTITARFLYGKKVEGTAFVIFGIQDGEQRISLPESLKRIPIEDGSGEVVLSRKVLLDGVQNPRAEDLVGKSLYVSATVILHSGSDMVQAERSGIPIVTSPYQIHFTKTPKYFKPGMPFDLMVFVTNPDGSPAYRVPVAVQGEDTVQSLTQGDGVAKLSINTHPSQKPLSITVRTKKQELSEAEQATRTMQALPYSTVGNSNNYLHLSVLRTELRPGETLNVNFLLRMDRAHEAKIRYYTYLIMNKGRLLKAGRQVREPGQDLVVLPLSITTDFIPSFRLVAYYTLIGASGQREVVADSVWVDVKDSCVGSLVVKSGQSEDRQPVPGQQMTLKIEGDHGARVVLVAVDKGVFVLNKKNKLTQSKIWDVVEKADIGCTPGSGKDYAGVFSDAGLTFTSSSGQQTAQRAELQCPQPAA
Sequence (P01024 749-1303 limits assumed): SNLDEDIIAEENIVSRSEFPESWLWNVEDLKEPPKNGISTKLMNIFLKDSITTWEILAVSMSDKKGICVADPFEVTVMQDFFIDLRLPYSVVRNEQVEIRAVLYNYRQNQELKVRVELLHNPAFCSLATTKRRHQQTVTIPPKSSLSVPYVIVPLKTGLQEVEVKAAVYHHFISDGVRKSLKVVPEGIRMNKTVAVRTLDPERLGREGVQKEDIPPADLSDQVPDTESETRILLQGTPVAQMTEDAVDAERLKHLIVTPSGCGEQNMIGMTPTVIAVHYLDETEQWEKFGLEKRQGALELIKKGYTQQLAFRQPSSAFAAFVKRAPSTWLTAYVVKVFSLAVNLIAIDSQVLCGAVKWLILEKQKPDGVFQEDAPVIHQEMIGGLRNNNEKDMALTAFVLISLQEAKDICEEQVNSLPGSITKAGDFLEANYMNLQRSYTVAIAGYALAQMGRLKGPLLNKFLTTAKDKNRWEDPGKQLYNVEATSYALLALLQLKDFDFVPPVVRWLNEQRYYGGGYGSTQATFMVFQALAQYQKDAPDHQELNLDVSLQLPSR
Sequence (P01024 1321-1663 limits assumed): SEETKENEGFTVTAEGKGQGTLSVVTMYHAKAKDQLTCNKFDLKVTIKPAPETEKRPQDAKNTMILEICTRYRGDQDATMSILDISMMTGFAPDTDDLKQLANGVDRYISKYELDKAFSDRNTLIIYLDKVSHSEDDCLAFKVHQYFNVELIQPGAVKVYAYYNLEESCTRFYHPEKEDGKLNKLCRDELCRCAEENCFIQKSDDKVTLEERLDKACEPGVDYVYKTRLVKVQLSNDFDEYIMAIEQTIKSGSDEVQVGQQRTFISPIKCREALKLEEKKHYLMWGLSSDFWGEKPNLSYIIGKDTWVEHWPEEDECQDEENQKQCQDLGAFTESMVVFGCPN
method_notes: Binding profile: binding to iC3b
condition: relative to the binding of the negative control mIgG2 antibody
endpoint_name: binding to iC3b
No unit in the answer, only the number.

In: Given the molecule 62F2: mouse anti-C3 monoclonal antibody; VH SEQ ID NO:105, VL SEQ ID NO:106 (antibody, V domains shown) VH: DVQLQESGPDLVKPSQSLSLTCTVTGYSITSGYSLHWIRQFPGNKLEWMGYIHYSGSTNYNPSLKSRISITRDTSKNQFFLKLNSVTSEDTATYHCARAWDYLDYWGQGTTLTVSS VL: DIQMTQSPASLSASVGETVTITCRASENIYSQLAWYQQKQGKSPQLLVYDAKTLAEGVPSRFSGSGSDTQFSLKIISLQPEDFGRYYCHHHFGILYTFGGGTKLEMK , what is its reported binding to iC3b?
Out: 0.49
